- Test system: Saccharomyces cerevisiae BY4741 SeMeCo community
- METHOD DESCRIPTION: z-score of subpopulation abundance vs DMSO median, subpopulation auxotrophic for HLU; higher = larger share of this subpopulation than in DMSO controls
- DETAILS: 10 µM; 24 h; SM minimal medium; subpopulation (auxotrophy): HLU
Structures can show the parent of a compound that is named as a salt.
Reported z-score of subpopulation abundance is given for each of the following compounds.
No unit in the answer, only the number.

Which z-score of subpopulation abundance value belongs to C[C@]12CCC3=C4CCC(=O)C=C4CC[C@H]3[C@@H]1CC[C@@]2(O)CC#N [Dienogest] ?
-0.53

Entry under review: C=CC1=C(C(=O)O)N2C(=O)[C@@H](NC(=O)/C(=N\OCC(=O)O)c3csc(N)n3)[C@H]2SC1 [Cefixime] . Reported z-score of subpopulation abundance?
-0.72

Record request: z-score of subpopulation abundance value, item Nc1ccc(S(=O)(=O)Nc2cnc3ccccc3n2)cc1 [Sulfaquinoxaline sodium]
0.31

Return reported z-score of subpopulation abundance; argument: N=C(N)NC(=N)N1CCOCC1 [Moroxydine HCl]
0.08

Which z-score of subpopulation abundance value is on record for Cc1c(OCC(F)(F)F)ccnc1C[S@@+]([O-])c1nc2ccccc2[nH]1 [Dexlansoprazole] ?
0.19

Others:
Name the reported z-score of subpopulation abundance value associated with the compound COc1cccc2c1C(=O)c1c(O)c3c(c(O)c1C2=O)CC(O)(C(=O)CO)CC3OC1CC(N)C(O)C(C)O1 (stereo not drawn) [Doxorubicin (Adriamycin) HCl]
12.3

Any idea what z-score of subpopulation abundance was measured for O=C1N=C(O)NC1(c1ccccc1)c1ccccc1 [Phenytoin Sodium] ?
0.17

Need z-score of subpopulation abundance of O=C1NCC2(CCN(CCc3ccccc3)CC2)O1 [Fenspiride HCl] , thanks.
1.03

====

- Tested on: Saccharomyces cerevisiae BY4741 SeMeCo community
- METHOD DESCRIPTION: z-score of subpopulation abundance vs DMSO median, subpopulation auxotrophic for HLUM; higher = larger share of this subpopulation than in DMSO controls
- DETAILS: 10 µM; 24 h; SM minimal medium; subpopulation (auxotrophy): HLUM
ASSAY ENDPOINT: z-score of subpopulation abundance
# print the numeric value only

Some compounds with known z-score of subpopulation abundance results, for comparison:
Tell me the measured z-score of subpopulation abundance of Cc1cc(CC(C)CC(C)(C)C)n(O)c(=O)c1 (centres undefined) , please.
16.6

Reported z-score of subpopulation abundance, compound CCOc1ccc2ccccc2c1C(=O)N[C@@H]1C(=O)N2[C@@H]1SC(C)(C)[C@@H]2C(=O)O [Nafcillin Sodium] : ____
-0.09

Need z-score of subpopulation abundance, item CC1(C)S[C@@H]2[C@H](NC(=O)[C@H](C(=O)O)c3ccsc3)C(=O)N2[C@H]1C(=O)O [Ticarcillin sodium]
1.75

Continue with the next compound.
Fill in: z-score of subpopulation abundance of CCCCCCCCc1ccc(CCC(N)(CO)CO)cc1 is ___
-1.27

====

Readings of z-score of prototroph abundance for the listed molecules
- System: Saccharomyces cerevisiae BY4741 SeMeCo community
- METHOD DESCRIPTION: z-score of prototroph abundance vs DMSO median; higher = larger share of this subpopulation than in DMSO controls
- DETAILS: 10 µM; 24 h; SM minimal medium; subpopulation (auxotrophy): Prototroph
When you answer, write just the number.

Example entries and their recorded answers appear below.
Tell me the measured z-score of prototroph abundance of CCCN1CCCC[C@H]1C(=O)Nc1c(C)cccc1C [Ropivacaine] , please.
0.72

Data request, read-out z-score of prototroph abundance, for Cc1c(C)c2c(c(C)c1O)CCC(C)(CCCC(C)CCCC(C)CCCC(C)C)O2 (stereo not given) [Vitamin E]
0.82

Which measured z-score of prototroph abundance value corresponds to CCCN1C[C@H](C)[C@@H](O)[C@](C)(O)[C@@H](CC)OC(=O)[C@H](C)[C@@H](O[C@H]2C[C@@](C)(OC)[C@@H](O)[C@H](C)O2)[C@H](C)[C@@H](O[C@@H]2O[C@H](C)C[C@H](N(C)C)[C@H]2O)[C@](C)(O)C[C@H]1C [Gamithromycin] ?
-0.29

Fill in the blank: the reported z-score of prototroph abundance of CC(=O)O[C@H]1C[C@@]2(C)[C@@H](C[C@@H](O)[C@H]3[C@@]4(C)CC[C@@H](O)[C@@H](C)[C@@H]4CC[C@@]32C)/C1=C(\CCC=C(C)C)C(=O)O [Fusidate Sodium] is ____.
-0.65

Pending molecule:
Query (molecule): C=CC(C)(O)CCC=C(C)C (stereo not given) [Linalool] ; field requested: z-score of prototroph abundance
-0.57
